In this section, each of the binders is paired with its reported koff.
biological target: T1, Rhesus macaque CD4-HIS (Acro Biosystems, Cat. CD4-C52H7) (rhesus macaque, UniProt P16003 26-390); experiment: BLI Octet, mAb on anti-mouse Fc sensor, rhesus CD4-HIS 25-100 nM, 1:1 global fit;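 also: purified antibodies captured at 10 µg/mL, rhesus CD4 analyte run as a three-concentration serial dilution, irrelevant antibody as reference control, one kinetic constant set per antibody from global fitting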
T1 construct: Bought reagent; also called Rhesus CD4; rhesus CD4-HIS; not shown: His tag
T1 sequence (P16003 26-390 limits assumed): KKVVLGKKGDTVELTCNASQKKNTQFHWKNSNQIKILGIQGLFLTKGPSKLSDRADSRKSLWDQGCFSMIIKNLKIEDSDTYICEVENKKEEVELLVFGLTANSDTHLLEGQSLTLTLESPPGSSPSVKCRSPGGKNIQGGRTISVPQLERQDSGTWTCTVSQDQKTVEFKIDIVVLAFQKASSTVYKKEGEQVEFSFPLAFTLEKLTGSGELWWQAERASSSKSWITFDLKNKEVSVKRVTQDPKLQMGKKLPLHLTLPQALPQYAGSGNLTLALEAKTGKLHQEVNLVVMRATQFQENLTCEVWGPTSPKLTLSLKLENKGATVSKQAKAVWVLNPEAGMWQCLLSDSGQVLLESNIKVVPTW

- BINDER: "75110_04P08A (antibody, V domains shown, Tested as antibody purified from AlivaMab Mouse hybridoma supernatant (captured by anti-mouse IgG Fc)) VH: QVQLQQWGAGLLKPSETLSLTCAVYGGSLSGYYWSWIRQSPGKGLEWIGEINQSGSTNYNPSLKSRVTISVDTSKDQFSLRLTSVTAADTAVYYCTRVLNWFDPWGRGTLVTVSS VL: DIQMTQSPSSVSASVGDRVTLTCRASQDISNWLAWYQQKPGKAPKLLIYAASSLQSGVPSRFSGSGSGTDFTLTISSLQTEDFATYYCQQANSFPYTFGQGTKLEIK"
  koff, s⁻¹: 0.0091
- BINDER: "75110_02N15A (antibody, V domains shown, Tested as antibody purified from AlivaMab Mouse hybridoma supernatant (captured by anti-mouse IgG Fc)) VH: EVQLVESGGGLVQPGGSLRLSCAASGFTFSSYWMSWVRQAPGKGLEWVANINEDGNEKYYVDSVKGRFTISRDNAKNSLFLQMNSLRAEDTAVYFCAREGGQWLALDHWGQGALVTVSS VL: DIQMTQSPSSVSASVGDRVTITCRASQGISSWLAWYQQKPGKAPKFLISGASSLQSGVPSRFSGSGSGTDFTLTISSLQPEDFATYYCQQANSFPWTFGQGTKVEFK"
  koff, s⁻¹: 0.0026
- BINDER: "75110_02I16A (antibody, V domains shown, Tested as antibody purified from AlivaMab Mouse hybridoma supernatant (captured by anti-mouse IgG Fc)) VH: QVQLQQWGAGLLKPSETLSLTCDVYGGSFSGYYWTWIRQPPGKGLEWIGEINHSGTTNSNPSLKSRVTISVDTSKSQFSLRLSSVTAADTAVYFCTRELNWFDPWGQGTLVTVSS VL: DIQMTQSPSSVSASVGDRVTITCRASQDIANWLAWYQQKPGKAPQLLIYAASSLLGGVPSRFSGSGSGADFTLTISSLHPEDFATYYCQQANSFPYTFGQGTKLEIK"
  koff, s⁻¹: 0.0092
